Source: patent US20260130395A1

Listed below: Stability of Plant-Derived Cannabinoid Compounds in AB Red values for each entry.
Experiment: Stability of cannabinoid compounds and Vitamin E components in Beverage 2 (AB Red) by LCMSMS
Type: physicochemical
Details: stored at 21-25° C., 11 days
Measured Attribute: Stability of Plant-Derived Cannabinoid Compounds in AB Red (µg/mL)

Molecule | Quantitative Readout
CCCCCc1cc(O)c2c(c1)OC(C)(C)c1ccc(C)cc1-2 | 2.83
CCCc1cc(O)c2c(c1)OC(C)(C)[C@@H]1CCC(C)=C[C@@H]21 [THCV, delta-9-tetrahydrocannabivarin] | 3.24
C=C(C)[C@@H]1CCC(C)=C[C@H]1c1c(O)cc(CCCCC)c(C(=O)O)c1O | 1.64
CCCCCc1cc(O)c2c(c1)OC(C)(CCC=C(C)C)C=C2 (stereo not shown) | 0.29

---

Experiment: Stability of cannabinoid compounds and Vitamin E components in Beverage 2 (AB Red) by LCMSMS
Type: physicochemical
Details: stored at 21-25° C., 5 days
# Stability of Plant-Derived Cannabinoid Compounds in AB Red listing for each entry below
Measured Attribute: Stability of Plant-Derived Cannabinoid Compounds in AB Red (µg/mL)

Compound | Result Unit | Quantitative Readout
C=C(C)[C@@H]1CCC(C)=C[C@H]1c1c(O)cc(CCCCC)c(C(=O)O)c1O [CBDA, cannabidiolic acid] | µg/mL | 1.69
CCCCCc1cc2c(c(O)c1C(=O)O)[C@@H]1C=C(C)CC[C@H]1C(C)(C)O2 [D9 THCA, delta-9-tetrahydrocannabinolic acid] | µg/mL | 1.36
C=C(C)[C@@H]1CCC(C)=C[C@H]1c1c(O)cc(CCC)cc1O [CBDV, cannabidivarin] | µg/mL | 0.19
CCCCCc1cc(O)c2c(c1)OC(C)(C)c1ccc(C)cc1-2 [CBN, cannabinol] | µg/mL | 2.71
CCCc1cc(O)c2c(c1)OC(C)(C)[C@@H]1CCC(C)=C[C@@H]21 [THCV, delta-9-tetrahydrocannabivarin] | µg/mL | 3.25

---

Experiment: Stability of cannabinoid entourage and Vitamin E components of the powder concentrate by LCMSMS
Type: physicochemical
Settings: powder stored at 21-25° C.; 26 days
Measured Attribute: Stability of Plant-Derived Cannabinoid Compounds in Powder Concentrate (mg/g powder)

Compound | Quantitative Readout
CCCCCc1cc2c(c(O)c1C(=O)O)[C@@H]1C=C(C)CC[C@H]1C(C)(C)O2 [D9 THCA, delta-9-tetrahydrocannabinolic acid] | 0.150
CCCCCc1cc(O)c2c(c1)OC(C)(CCC=C(C)C)C=C2 (stereo not shown) [CBC, cannabichromene] | 0.071
CCCCCc1cc(O)c2c(c1)OC1(C)CCC3C1C2C3(C)C (stereo not shown) [CBL, cannabicyclol] | 0.051
CCCCCc1cc(O)c(C/C=C(\C)CCC=C(C)C)c(O)c1 [CBG, cannabigerol] | 1.14
C=C(C)[C@@H]1CCC(C)=C[C@H]1c1c(O)cc(CCCCC)cc1O [CBD, cannabidiol, reference compound] | 6.00
CCCCCc1cc(O)c2c(c1)OC(C)(C)c1ccc(C)cc1-2 [CBN, cannabinol] | 0.486
C=C(C)[C@@H]1CCC(C)=C[C@H]1c1c(O)cc(CCCCC)c(C(=O)O)c1O [CBDA, cannabidiolic acid] | 0.397
C=C(C)[C@@H]1CCC(C)=C[C@H]1c1c(O)cc(CCC)cc1O [CBDV, cannabidivarin] | 0.050
CCCCCc1cc(O)c2c(c1)OC(C)(C)[C@@H]1CCC(C)=C[C@@H]21 [D9 THC, delta-9-tetrahydrocannabinol, reference compound] | 2.52
CCCc1cc(O)c2c(c1)OC(C)(C)[C@@H]1CCC(C)=C[C@@H]21 [THCV, delta-9-tetrahydrocannabivarin] | 0.686

---

Assay: Stability of cannabinoid compounds and Vitamin E components in Beverage 1 (AB White) by LCMSMS
Type: physicochemical
Conditions: AB White stored at 8° C.; 15 days
Listing: Stability of Plant-Derived Cannabinoid Compounds in AB White, 8° C. of selected compounds
Measured Attribute: Stability of Plant-Derived Cannabinoid Compounds in AB White, 8° C. (µg/mL)

Compound | Quantitative Readout
CCCCCc1cc2c(c(O)c1C(=O)O)[C@@H]1C=C(C)CC[C@H]1C(C)(C)O2 [D9 THCA, delta-9-tetrahydrocannabinolic acid] | 0.944
C=C(C)[C@@H]1CCC(C)=C[C@H]1c1c(O)cc(CCC)cc1O [CBDV, cannabidivarin] | 0.150
CCCCCc1cc(O)c(C/C=C(\C)CCC=C(C)C)c(O)c1 [CBG, cannabigerol] | 4.81
CCCCCc1cc(O)c2c(c1)OC(C)(C)[C@@H]1CCC(C)=C[C@@H]21 [D9 THC, delta-9-tetrahydrocannabinol, reference compound] | 12.08
C=C(C)[C@@H]1CCC(C)=C[C@H]1c1c(O)cc(CCCCC)c(C(=O)O)c1O [CBDA, cannabidiolic acid] | 1.74
C=C(C)[C@@H]1CCC(C)=C[C@H]1c1c(O)cc(CCCCC)cc1O [CBD, cannabidiol, reference compound] | 27.99

---

Assay: Stability of cannabinoid compounds and Vitamin E components in Beverage 2 (AB Red) by LCMSMS
Type: physicochemical
Conditions: stored at 8° C., 29 days
Listing of recorded Stability of Plant-Derived Cannabinoid Compounds in AB Red by entry.
Measured Attribute: Stability of Plant-Derived Cannabinoid Compounds in AB Red (µg/mL)

Molecule | Result Unit | Quantitative Readout
CCCCCc1cc(O)c2c(c1)OC1(C)CCC3C1C2C3(C)C (stereo not drawn) | µg/mL | 0.511
C=C(C)[C@@H]1CCC(C)=C[C@H]1c1c(O)cc(CCC)cc1O | µg/mL | 0.197
CCCc1cc(O)c2c(c1)OC(C)(C)[C@@H]1CCC(C)=C[C@@H]21 [THCV, delta-9-tetrahydrocannabivarin] | µg/mL | 3.22
CCCCCc1cc(O)c2c(c1)OC(C)(CCC=C(C)C)C=C2 (stereo not drawn) | µg/mL | 0.284
CCCCCc1cc(O)c(C/C=C(\C)CCC=C(C)C)c(O)c1 | µg/mL | 4.80
CCCCCc1cc(O)c2c(c1)OC(C)(C)c1ccc(C)cc1-2 | µg/mL | 2.77

---

Assay: Stability of cannabinoid compounds and Vitamin E components in Beverage 1 (AB White) by LCMSMS
Assay type: physicochemical
Details: AB White stored at 21-25° C.; 510 days
Measured Attribute: Stability of Plant-Derived Cannabinoid Compounds in AB White, 21-25° C. (µg/mL)

Compound | Quantitative Readout
CCCc1cc(O)c2c(c1)OC(C)(C)[C@@H]1CCC(C)=C[C@@H]21 [THCV, delta-9-tetrahydrocannabivarin] | 3.32
CCCCCc1cc(O)c2c(c1)OC(C)(C)c1ccc(C)cc1-2 | 2.66
CCCCCc1cc2c(c(O)c1C(=O)O)[C@@H]1C=C(C)CC[C@H]1C(C)(C)O2 [D9 THCA, delta-9-tetrahydrocannabinolic acid] | 0.903
C=C(C)[C@@H]1CCC(C)=C[C@H]1c1c(O)cc(CCC)cc1O | 0.139
CCCCCc1cc(O)c2c(c1)OC1(C)CCC3C1C2C3(C)C (centres unmarked) | 0.503

---

Listed here: items and their measured Stability of Plant-Derived Cannabinoid Compounds in AB Red.
Test: Stability of cannabinoid compounds and Vitamin E components in Beverage 2 (AB Red) by LCMSMS
Assay type: physicochemical
Conditions: stored at 21-25° C., 24 days
Measured Attribute: Stability of Plant-Derived Cannabinoid Compounds in AB Red (µg/mL)

Compound | Result Unit | Quantitative Readout
CCCCCc1cc(O)c2c(c1)OC(C)(CCC=C(C)C)C=C2 (centres unmarked) | µg/mL | 0.29
C=C(C)[C@@H]1CCC(C)=C[C@H]1c1c(O)cc(CCC)cc1O | µg/mL | 0.19
CCCCCc1cc(O)c(C/C=C(\C)CCC=C(C)C)c(O)c1 | µg/mL | 4.78
CCCc1cc(O)c2c(c1)OC(C)(C)[C@@H]1CCC(C)=C[C@@H]21 [THCV, delta-9-tetrahydrocannabivarin] | µg/mL | 3.25
CCCCCc1cc2c(c(O)c1C(=O)O)[C@@H]1C=C(C)CC[C@H]1C(C)(C)O2 [D9 THCA, delta-9-tetrahydrocannabinolic acid] | µg/mL | 1.30

---

Experiment: Stability of cannabinoid compounds and Vitamin E components in Beverage 1 (AB White) by LCMSMS
Format: physicochemical
Details: AB White stored at 8° C.; 120 days
Measured Stability of Plant-Derived Cannabinoid Compounds in AB White, 8° C. of individual entries
Measured Attribute: Stability of Plant-Derived Cannabinoid Compounds in AB White, 8° C. (µg/mL)

Compound | Quantitative Readout
CCCCCc1cc(O)c2c(c1)OC(C)(C)c1ccc(C)cc1-2 | 2.72
C=C(C)[C@@H]1CCC(C)=C[C@H]1c1c(O)cc(CCC)cc1O | 0.144
CCCCCc1cc(O)c2c(c1)OC(C)(C)[C@@H]1CCC(C)=C[C@@H]21 [D9 THC, delta-9-tetrahydrocannabinol, reference compound] | 11.79
CCCCCc1cc2c(c(O)c1C(=O)O)[C@@H]1C=C(C)CC[C@H]1C(C)(C)O2 [D9 THCA, delta-9-tetrahydrocannabinolic acid] | 0.932
CCCCCc1cc(O)c(C/C=C(\C)CCC=C(C)C)c(O)c1 | 4.89
C=C(C)[C@@H]1CCC(C)=C[C@H]1c1c(O)cc(CCCCC)cc1O [CBD, cannabidiol, reference compound] | 27.39
CCCCCc1cc(O)c2c(c1)OC(C)(CCC=C(C)C)C=C2 (stereo not shown) | 0.311
CCCc1cc(O)c2c(c1)OC(C)(C)[C@@H]1CCC(C)=C[C@@H]21 [THCV, delta-9-tetrahydrocannabivarin] | 3.56
C=C(C)[C@@H]1CCC(C)=C[C@H]1c1c(O)cc(CCCCC)c(C(=O)O)c1O | 1.67
CCCCCc1cc(O)c2c(c1)OC1(C)CCC3C1C2C3(C)C (stereo not shown) | 0.534
